# System: MRP1 cells, doxorubicin viability shift, 10 uM compound
# Measurement Description: viability protection against doxorubicin, MRP-1 line – cell-based, doxorubicin EC50 shift, dose response (AID 844)
Active and inactive are the calls of the source. How the calls were made is not given here.
Log the outcome using a class from YES for active, NO for inactive

Example entries and their recorded answers appear below.
[[record]]
molecule = "Cc1nc2cc(-c3ccc(Cl)cc3)nn2c(C)c1CCC(=O)NC(C)c1ccc2c(c1)OCCO2 (configuration not stated)"
class_label = "NO"

[[record]]
molecule = "CCc1ccc(-c2csc(NC(=O)Oc3ccccc3)n2)cc1"
class_label = "NO"

[[record]]
molecule = "Cc1cc(C(=O)N/N=C/c2cc([N+](=O)[O-])cc(C)c2O)n[nH]1"
class_label = "NO"

[[record]]
molecule = "N#Cc1ccc(N2C(=O)[C@@H]3C(C(=O)c4ccc5ccccc5n4)=NN[C@@H]3C2=O)cc1"
class_label = "NO"

[[record]]
molecule = "COc1cccc(/C=N/NC(=O)Cn2nc(C)c([N+](=O)[O-])c2C)c1O"
class_label = "NO"

[[record]]
molecule = "CCCCC1S/C(=N/N=C/c2ccc(OC)cc2)N(Cc2ccc(OC)cc2)C1=O (configuration not stated)"
class_label = "NO"


**Query** I'd appreciate the recorded outcome for Cc1ccc2[nH]c(=O)c(C(c3nnnn3C3CCCC3)N3CCCc4ccccc43)cc2c1 (configuration not stated) from this test.
**Result** NO

**Query** I'd appreciate the recorded outcome for `COc1cccc(Nc2ncc(C(=O)O)c3ccccc23)c1` from this test.
**Result** NO

**Query** I'd appreciate the recorded outcome for `Cc1ccc(OCCN2CCN(C(=O)CCC(=O)Nc3nnc(C)s3)CC2)cc1` from this test.
**Result** YES

**Query** I'd appreciate the recorded outcome for `CC(=O)OCC(=O)[C@@]1(O)[C@H](C)C[C@H]2[C@@H]3CCC4=CC(=O)C=C[C@]4(C)[C@@]3(F)[C@@H](O)C[C@@]21C` from this test.
**Result** NO

**Query** I'd appreciate the recorded outcome for Cc1cc2n(n1)C(c1ccccc1)CC(c1ccc(Br)cc1)=N2 (configuration not stated) from this test.
**Result** NO

----------
Recorded fold increase in Dox EC50 for the following molecules
# Tested on: MRP1 cells, doxorubicin viability shift, 10 uM compound
# Measurement Description: viability protection against doxorubicin, MRP-1 line – cell-based, doxorubicin EC50 shift, dose response (AID 844)
Activity calls are given as the source filed them. The rule behind the calls is not given here.

Use these answered entries as a reference point.
[[record]]
molecule = "CCOc1ccccc1N(C(=O)c1snc(C(N)=O)c1N)C(C(=O)NCCC(C)C)c1ccco1 (stereo unspecified)"
reported_value = "0.3 (inactive)"

[[record]]
molecule = "Cc1ccc(C(=O)NC(C)c2ccc(F)cc2)cc1 (stereo unspecified)"
reported_value = "0.68 (inactive)"

[[record]]
molecule = "Cc1ccc(C)c(/C(O)=C2\\C(=O)C(=O)N(CCCn3ccnc3)C2c2ccncc2)c1 (stereo unspecified)"
reported_value = "1.17 (inactive)"

[[record]]
molecule = "CCn1c(COc2ccc(C)cc2)nnc1SCc1nc2ccccc2[nH]1"
reported_value = "0.88 (inactive)"

[[record]]
molecule = "COc1ccccc1NC(=O)CSC1=NCCN1"
reported_value = "0.68 (inactive)"


For the next question, use this molecule.
Lab book: fold increase in Dox EC50 of `O=C(Nc1cccn(Cc2c(Cl)cccc2Cl)c1=O)c1c(Cl)cccc1Cl` noted as 1.07 (inactive)

----------
# Tested on: MRP1 cells, doxorubicin viability shift, 10 uM compound
# Measurement Description: viability protection against doxorubicin, MRP-1 line – cell-based, doxorubicin EC50 shift, dose response (AID 844)
Recorded fold increase in Dox EC50 for the following compounds
Respond numerically, and do not add a unit to the figure.

Use these answered entries as a reference point.
[[record]]
compound = "CSC1=NP(=S)(SC)N2CCCC2=C1C#N (stereo unspecified)"
reported_value = 0.97

[[record]]
compound = "COc1ccc(/C=N\\NC(=O)c2cc(O)c(O)c(O)c2)cc1CN1CCN(c2ccc(F)cc2)CC1"
reported_value = 0.69

[[record]]
compound = "COc1ccc(NC(=O)c2c(F)cccc2F)cc1S(=O)(=O)Nc1ccc(Br)cc1"
reported_value = 0.71

[[record]]
compound = "CN(C)S(=O)(=O)c1ccc(S(=O)(=O)N2CCN(CCC#N)CC2)cc1"
reported_value = 0.71

[[record]]
compound = "O=C(Nc1nc(-c2ccc(Oc3ccccc3)cc2)cs1)C1=COCCO1"
reported_value = 0.84


For the next question, use this compound.
Lab book: fold increase in Dox EC50 of `O=C(CSc1nc2ccccc2o1)NCc1ccc2c(c1)OCO2` noted as 1.15

----------
# Tested on: MRP1 cells, doxorubicin viability shift, 10 uM compound
# Measurement Description: viability protection against doxorubicin, MRP-1 line – cell-based, doxorubicin EC50 shift, dose response (AID 844)
Result Type: fold increase in Dox EC50
Respond numerically, and do not add a unit to the figure.

Use these answered entries as a reference point.
[[record]]
compound = "COc1ccc(C2C(C(=O)OCC(=O)NC(C)(C)C)CCC(=O)N2c2ccc(C)cc2)cc1OC (stereo not given)"
reported_value = 0.81

[[record]]
compound = "Cc1nnc(NC(=O)COc2ccccc2)s1"
reported_value = 1.25

[[record]]
compound = "COc1ccc(NC(=O)Cn2cc(C(=O)c3ccco3)c3ccccc32)cc1"
reported_value = 0.88

[[record]]
compound = "O=C1CC(N2CCCN(C3CC(=O)N(c4ccc(F)cc4)C3=O)CC2)C(=O)N1c1ccc(F)cc1 (stereo not given)"
reported_value = 1.17

[[record]]
compound = "COc1ccc(NC(=O)c2oc3ccccc3c2NC(=O)c2ccc3c(c2)OCO3)cc1"
reported_value = 0.44

[[record]]
compound = "Cc1cccc(NC(=O)/C(=C\\c2ccc([N+](=O)[O-])o2)NC(=O)c2ccc(Cl)cc2)c1"
reported_value = 0.75


For the next question, use this compound.
Lab book: fold increase in Dox EC50 of `CC(C)(C)c1ccc(C(=O)CSc2ncn[nH]2)cc1` noted as 0.82

----------
# System: MRP1 cells, doxorubicin viability shift, 10 uM compound
# Measurement Description: viability protection against doxorubicin, MRP-1 line – cell-based, doxorubicin EC50 shift, dose response (AID 844)
Recorded fold increase in Dox EC50 for the following compounds
Respond numerically, and do not add a unit to the figure.

Use these answered entries as a reference point.
[[record]]
compound = "CC(C)(C)c1cc(Br)ccc1OCC(=O)Nc1ncn[nH]1"
result_type = "fold increase in Dox EC50"
reported_value = 0.89

[[record]]
compound = "Cc1nc2ccccc2c(=O)n1/N=C/c1c(O)ccc2oc3c(c12)CCCC3"
result_type = "fold increase in Dox EC50"
reported_value = 0.28

[[record]]
compound = "Cc1ccccc1Cn1ccc(NC(=O)c2onc(C)c2Cl)n1"
result_type = "fold increase in Dox EC50"
reported_value = 1.15

[[record]]
compound = "COc1cccc(/C=N/NC(=O)C(=O)NCc2ccco2)c1O"
result_type = "fold increase in Dox EC50"
reported_value = 0.65

[[record]]
compound = "CC(=O)N1CCN=C1SCc1ccccc1F"
result_type = "fold increase in Dox EC50"
reported_value = 0.78


For the compound `CCc1nnc(NC(=O)c2ccc(COc3ccc(C)cc3)o2)s1` , the measured fold increase in Dox EC50 on MRP1 cells, doxorubicin viability shift, 10 uM compound was 1.33

For the compound CC(SC1=NCCS1)C(=O)Nc1nnc(-c2ccc(Br)cc2)s1 (configuration not stated) , the measured fold increase in Dox EC50 on MRP1 cells, doxorubicin viability shift, 10 uM compound was 0.97

For the compound `S=C(c1ccc(-c2ccccc2Cl)o1)N1CCCCC1` , the measured fold increase in Dox EC50 on MRP1 cells, doxorubicin viability shift, 10 uM compound was 0.85

For the compound CCC1(C)Cc2c(sc3nnn(CC(=O)Nc4ccc(C)cc4)c(=O)c23)CO1 (configuration not stated) , the measured fold increase in Dox EC50 on MRP1 cells, doxorubicin viability shift, 10 uM compound was 1.07

For the compound `CCCCCOc1ccc(CSc2ncn[nH]2)cc1` , the measured fold increase in Dox EC50 on MRP1 cells, doxorubicin viability shift, 10 uM compound was 0.68

For the compound CCC(C)Nc1ncnc2c1cnn2Cc1ccc(Cl)cc1 (configuration not stated) , the measured fold increase in Dox EC50 on MRP1 cells, doxorubicin viability shift, 10 uM compound was 0.84

For the compound O=C(NCc1ccc(F)cc1)C(=O)NCC1OCCN1C(=O)c1cccs1 (configuration not stated) , the measured fold increase in Dox EC50 on MRP1 cells, doxorubicin viability shift, 10 uM compound was 1.24

----------
# Test system: MRP1 cells, doxorubicin viability shift, 10 uM compound
# Measurement Description: viability protection against doxorubicin, MRP-1 line – cell-based, doxorubicin EC50 shift, dose response (AID 844)
Recorded fold increase in Dox EC50 for the following molecules
Respond numerically, and do not add a unit to the figure.

Use these answered entries as a reference point.
[[record]]
molecule = "CCOC(=O)c1ccc(N2CN=C3SCC(=O)N3C2)cc1"
result_type = "fold increase in Dox EC50"
reported_value = 0.3

[[record]]
molecule = "CCCOc1ccc(CSc2ncn[nH]2)cc1"
result_type = "fold increase in Dox EC50"
reported_value = 0.89

[[record]]
molecule = "C/C(=N\\NC(=O)c1cccc(S(=O)(=O)Nc2cccc(Cl)c2)c1)c1cccs1"
result_type = "fold increase in Dox EC50"
reported_value = 0.65


Lab book: fold increase in Dox EC50 of CC(C)(C)NC(NC(=O)Cc1ccccc1)C(Cl)(Cl)Cl (stereo not drawn) noted as 1.07

Lab book: fold increase in Dox EC50 of `C=C(C)C(=O)NC1=NN(c2ccccc2)C(=O)C1` noted as 1.04

Lab book: fold increase in Dox EC50 of `N#Cc1c(-c2ccco2)nc(SCC(=O)Nc2cccc(Cl)c2)[nH]c1=O` noted as 1.33

Lab book: fold increase in Dox EC50 of O=C(NCc1ccc(Cl)cc1)C(=O)NCC(c1ccco1)N1CCOCC1 (stereo not drawn) noted as 1.25

Lab book: fold increase in Dox EC50 of `CCc1nnc(NC(=O)c2ccc(S(=O)(=O)N(CC)CC)cc2)s1` noted as 0.69

Lab book: fold increase in Dox EC50 of CC1CCC(NC(=O)Cn2c3c(c(-c4ccccc4Cl)cc2=O)CCC3)CC1 (stereo not drawn) noted as 1.13
